Reference source for all entries: the supplement of paper PMC12669032

Tested on: Escherichia coli ED1a
method: growth AUC relative to DMSO control (median of replicates) (fraction); higher = more growth (less inhibition), active = hit call of the paper
runParameters: 20 µM; 24 h
Catalogue of compounds with associated growth AUC
recordedMetric: growth AUC

compound: COC(=O)NC(=S)Nc1ccccc1NC(=S)NC(=O)OC
recordedMetric: growth AUC
testResult: 0.995
//
compound: CC(Cc1ccc(C(C)(C)C)cc1)CN1CCCCC1 (stereo unspecified)
recordedMetric: growth AUC
testResult: 0.998
//
compound: Nc1cc(Cl)ccc1Cl
recordedMetric: growth AUC
testResult: 1
//
compound: COCC(=O)N(c1c(C)cccc1C)C(C)C(=O)OC (stereo unspecified)
recordedMetric: growth AUC
testResult: 0.989
//
compound: N#Cc1cc(I)c(O)c(I)c1
recordedMetric: growth AUC
testResult: 0.891
//
compound: CCOP(=S)(OCC)Oc1cc(C)nc(C(C)C)n1
recordedMetric: growth AUC
testResult: 1
//
compound: CN(C)C(CSC(N)=O)CSC(N)=O.Cl
recordedMetric: growth AUC
testResult: 1.03
//
compound: O=C(Nc1ccccc1)Nc1cnns1
recordedMetric: growth AUC
testResult: 0.91
//
compound: Clc1cccc(C(Cl)(Cl)Cl)n1
recordedMetric: growth AUC
testResult: 0.974
//
compound: CC(C)C1(C)N=C(c2nc3ccccc3cc2C(=O)O)NC1=O (stereo unspecified)
recordedMetric: growth AUC
testResult: 0.985
//
compound: CCS(=O)(=O)c1nc2ccccn2c1S(=O)(=O)NC(=O)Nc1nc(OC)cc(OC)n1
recordedMetric: growth AUC
testResult: 0.99
//
compound: CC(C)(C)c1cc([N+](=O)[O-])cc([N+](=O)[O-])c1O
recordedMetric: growth AUC
testResult: 0.93
//
compound: CC(C)(C)[C@@H](O)[C@H](Oc1ccc(Cl)cc1)n1cncn1
recordedMetric: growth AUC
testResult: 0.977
//
compound: CCS(=O)(=O)CCSP(=O)(OC)OC
recordedMetric: growth AUC
testResult: 1.01
//
compound: CC1=C(C(=O)Nc2ccccc2)S(=O)(=O)CCO1
recordedMetric: growth AUC
testResult: 1.02
//
compound: COP(=S)(OC)SCn1nnc2ccccc2c1=O
recordedMetric: growth AUC
testResult: 0.957
//
compound: COc1nc(C)nc(NC(=O)NS(=O)(=O)c2ccccc2Cl)n1
recordedMetric: growth AUC
testResult: 0.982
//
compound: Cc1cc(OC(=O)N(C)C)nn1C(=O)N(C)C
recordedMetric: growth AUC
testResult: 0.996
//
compound: CCCN(CCOc1c(Cl)cc(Cl)cc1Cl)C(=O)n1ccnc1
recordedMetric: growth AUC
testResult: 1.01
//
compound: CCOc1cc(C(C)(C)C)ccc1C1COC(c2c(F)cccc2F)=N1 (stereo unspecified)
recordedMetric: growth AUC
testResult: 0.998
//
compound: O=C(O)COc1cc(Cl)c(Cl)cc1Cl
recordedMetric: growth AUC
testResult: 0.965
//
compound: COc1cnc(OC)n2nc(NS(=O)(=O)c3c(OCC(F)F)cccc3C(F)(F)F)nc12
recordedMetric: growth AUC
testResult: 1.01
//
compound: OC(Cc1ccccc1Cl)(Cn1[nH]cnc1=S)C1(Cl)CC1 (stereo unspecified)
recordedMetric: growth AUC
testResult: 1.02
//
compound: Cc1ccc(NC(=O)N(C)C)cc1Cl
recordedMetric: growth AUC
testResult: 0.985
//
compound: CCCCC(O)(Cn1cncn1)c1ccc(Cl)cc1Cl (stereo unspecified)
recordedMetric: growth AUC
testResult: 0.987
//
compound: Cc1cc(C)c(C2=C(OC(=O)CC(C)(C)C)C3(CCCC3)OC2=O)c(C)c1
recordedMetric: growth AUC
testResult: 1.02
//
compound: C[n+]1ccc(-c2cc[n+](C)cc2)cc1.O.[Cl-].[Cl-]
recordedMetric: growth AUC
testResult: 1.03
//
compound: O=C(NC(=O)c1c(F)cccc1F)Nc1ccc(CO/N=C(\c2ccc(Cl)cc2)C2CC2)cc1
recordedMetric: growth AUC
testResult: 1
//
compound: C=CCNC(=O)c1c([Si](C)(C)C)sc(C)c1C
recordedMetric: growth AUC
testResult: 0.972
//
compound: CCCSP(=S)(OCC)Oc1ccc(SC)cc1 (stereo unspecified)
recordedMetric: growth AUC
testResult: 1.01
//
compound: CSc1nnc(C(C)(C)C)c(=O)n1N
recordedMetric: growth AUC
testResult: 1.04
//
compound: O=C(NC(=O)c1c(F)cccc1F)Nc1ccc(Cl)c(Oc2ncc(C(F)(F)F)cc2Cl)c1
recordedMetric: growth AUC
testResult: 0.999
//
compound: CCC/C(=N\OCC)C1=C(O)CC(CC(C)SCC)CC1=O (stereo unspecified)
recordedMetric: growth AUC
testResult: 0.986
//
compound: CCC(C)c1cc([N+](=O)[O-])cc([N+](=O)[O-])c1OC(=O)C=C(C)C (stereo unspecified)
recordedMetric: growth AUC
testResult: 0.968
//
compound: CC[C@H]1CCCC(O[C@H]2CC[C@H](N(C)C)[C@@H](C)O2)[C@@H](C)C(=O)C2=C[C@@H]3[C@@H](C=C(C)[C@@H]4C[C@@H](O[C@@H]5O[C@@H](C)[C@H](OC)[C@@H](OC)[C@H]5OC)C[C@@H]34)[C@@H]2CC(=O)O1.CC[C@H]1CCCC(O[C@H]2CC[C@H](N(C)C)[C@@H](C)O2)[C@@H](C)C(=O)C2=C[C@@H]3[C@@H](C=C[C@@H]4C[C@@H](O[C@@H]5O[C@@H](C)[C@H](OC)[C@@H](OC)[C@H]5OC)C[C@@H]34)[C@@H]2CC(=O)O1 (stereo partly specified)
recordedMetric: growth AUC
testResult: 0.963
//
compound: CCOCCN(C(=O)CCl)C(=C(C)C)c1ccccc1
recordedMetric: growth AUC
testResult: 0.98
//
compound: ClC1=C(Cl)C(Cl)(C2(Cl)C(Cl)=C(Cl)C(Cl)=C2Cl)C(Cl)=C1Cl
recordedMetric: growth AUC
testResult: 1.04
//
compound: O=[N+]([O-])c1ccccc1
recordedMetric: growth AUC
testResult: 1.01
//
compound: CC(C)(C)C(O)C(Oc1ccc(-c2ccccc2)cc1)n1cncn1 (mixture of isomers)
recordedMetric: growth AUC
testResult: 1.01
//
compound: CCOC(=O)N(C)C(=O)CSP(=S)(OCC)OCC
recordedMetric: growth AUC
testResult: 1.01
//
compound: CC(C)OC(=O)C(O)(c1ccc(Br)cc1)c1ccc(Br)cc1
recordedMetric: growth AUC
testResult: 1.01
